# Test system: COLO 205 colon
# EXPERIMENTAL_PROTOCOL: NCI tumour cell line growth inhibition, 48 h
READOUT: TGI

Example cases with answers are listed next.
- MOLECULE: "O=C(CNc1ccc(Cl)cc1)Nn1c(-c2ccccc2)nc2ccccc2c1=O"
  READOUT: "TGI"
  REPORTED_VALUE: "18.6 µM"
- MOLECULE: "N#CCCN(CCC#N)c1ccc(C(=O)NN)cc1"
  READOUT: "TGI"
  REPORTED_VALUE: "> 100 µM"
- MOLECULE: "CC(=O)NC(CCCN)C(=O)NCc1ccccc1 (stereo unspecified)"
  READOUT: "TGI"
  REPORTED_VALUE: "> 100 µM"
- MOLECULE: "CCOC(=O)N/N=C(/N)Cc1ccccc1"
  READOUT: "TGI"
  REPORTED_VALUE: "> 100 µM"
- MOLECULE: "COC(=O)[C@]12CCC(C)(C)C[C@H]1C1=CC[C@@H]3[C@@]4(C)C/C(=C/c5cccnc5)C(=O)C(C)(C)[C@@H]4CC[C@@]3(C)[C@]1(C)CC2"
  READOUT: "TGI"
  REPORTED_VALUE: "25.3 µM"
- MOLECULE: "Cc1ccc2nc3ccccc3c(C3C4C(=O)N(c5ccc(Br)cc5Cl)C(=O)C4ON3C(C(N)=O)c3ccccc3)c2c1 (stereo unspecified)"
  READOUT: "TGI"
  REPORTED_VALUE: "> 25 µM"
- MOLECULE: "Cc1ccc(C(=O)/C=C/c2ccccc2O)c(C)c1"
  READOUT: "TGI"
  REPORTED_VALUE: "> 100 µM"
- MOLECULE: "COC1(OC)C2(Cl)CCC1(Cl)C(OC(C)=O)C2 (stereo unspecified)"
  READOUT: "TGI"
  REPORTED_VALUE: "> 100 µM"

Provide TGI values for the following items, in order.
1. CCOC(=O)C(=C(SC)SC)c1nn2c(=O)cc(C)nc2s1
2. COc1ccc(-c2nc(-c3nc4ccc(C)cc4[nH]3)c3ccccn23)cc1

Response:
["36.2 µM", "> 100 µM"]

TGI for CC(C)(C)C1=CC(=CC=C2C=CN(CCCCCCCCCCCO)C=C2)C=C(C(C)(C)C)C1=O is 2.82 µM

====

Please provide measured TGI for the entries that follow.
# System: MOLT-4 leukemia
# EXPERIMENTAL_PROTOCOL: NCI tumour cell line growth inhibition, 48 h

- COMPOUND: "O=P(O)(O)CN1CCN(CP(=O)(O)O)CCN(CP(=O)(O)O)CCN(CP(=O)(O)O)CC1"
  TGI: "> 100 µM"

For every listed record, write down its TGI.
1. CC[N+](C)(CC)Cc1ccccc1[N+](=O)[O-]
2. C[C@]12CC[C@@H]3c4ccc(O)cc4C[C@@H](CCCCCCCCCS(=O)CCCC(F)(F)C(F)(F)F)[C@H]3[C@@H]1CC[C@@H]2O (some centres undefined)
3. COc1ccc2c(c1)OCc1c-2oc2ccccc2c1=O
4. CC(C)CSc1nc(Nc2ccccc2)c(C#N)c(-c2ccc(F)cc2)n1
5. Cc1cccc(N2C(=O)C(Cl)=C(Cl)C2=O)c1

Response:
["> 100 µM", "> 100 µM", "> 100 µM", "> 100 µM", "> 75.8 µM"]

Batch request: TGI per item, same order as input.
1. O=C(CC(=O)N(C(=O)c1ccccc1)c1ccc(Cl)cc1)N/N=C\c1cc(N=Nc2ccccc2Cl)ccc1O
2. COc1cc(-c2c(C#N)c(N)n3c(nc4ccccc43)c2C#N)cc(Br)c1OC
3. CC[C@]12C=CCN3CC[C@@]4(c5ccc(OC)cc5N(C)[C@H]4[C@@](O)(C(=O)OC)[C@@H]1OC(C)=O)[C@@H]32

Response:
1: 37.8 µM; 2: > 100 µM; 3: > 176 µM

The reported numbers originate from PubChem BioAssay (NCI).
